Test: Shake-flask drug solubility in absence of excipient (reference solubility)
Assay type: physicochemical
Conditions: simulated gastric fluid, thermodynamic from solid, 0.1 N HCl pH 1 (compendial), 24 h, 37°C, mean ± SD, read-out: Reference solubility
Procedure: Compendial media (0.1 N HCl pH 1, phosphate buffer pH 6.8) were prepared according to the method described in European Pharmacopoeia ([35]). […] Drug solubility studies in the absence and presence of excipient were performed in triplicate using the shake-flask method ([38]). […] Filtered samples were further diluted (if needed) with the corresponding medium and analysed by HPLC (Supplementary Table I). […] Drug quantification was made based on calibration curves. […]

{"Compound": "CC(C)Cc1ccc(C(C)C(=O)O)cc1 (centres unmarked) [IBU, Ibuprofen]", "solubility at 24 h, µg/mL": 43}
{"Compound": "OCCN(CCO)c1nc(N2CCCCC2)c2nc(N(CCO)CCO)nc(N3CCCCC3)c2n1 [DPL, Dipyridamole]", "solubility at 24 h, µg/mL": 13000}
{"Compound": "CCC(C)n1ncn(-c2ccc(N3CCN(c4ccc(OCC5COC(Cn6cncn6)(c6ccc(Cl)cc6Cl)O5)cc4)CC3)cc2)c1=O (centres unmarked) [ITZ, Itraconazole]", "solubility at 24 h, µg/mL": 11}
{"Compound": "CC(=O)Nc1ccc(O)cc1 [PRC, Paracetamol]", "solubility at 24 h, µg/mL": 16000}
{"Compound": "NC(=O)N1c2ccccc2C=Cc2ccccc21 [CBZ, Carbamazepine]", "solubility at 24 h, µg/mL": 265}
